Reference for the values: patent US20230106506A1

Listing: half-life at 1 µM of selected compounds
Test: Metabolic stability in mouse liver microsomes (MLM)
Assay type: in vitro ADME
Conditions: 1 μM compound, 0.5 mg/mL MLM, 1 mM NADPH, 37° C., read-out: half-life (t1/2) towards MLM

The examples below pair each entry with its known result.
{"columns": ["mol", "half-life at 1 µM"],
 "data": [
  ["CC(C)Oc1ccc(-c2ncc(CNc3cc(-n4cncn4)nc(C(F)(F)F)c3)s2)cc1", "1.02 to 1.67 h"],
  ["CC(C)Oc1ccc(-c2ncc(CNc3cc(-c4cc[nH]n4)nc(C(F)(F)F)c3)s2)cc1", "> 1.67 h"],
  ["CC(C)Oc1ccc(-c2cnc(CNc3cc(-c4cnn(C)c4)nc(C(F)(F)F)c3)nc2)cc1", "> 1.67 h"],
  ["Fc1ccc(Oc2ccc(-c3ncc(CNc4cc(-c5cn[nH]c5)nc(C(F)(F)F)c4)cn3)cc2)cc1", "> 1.67 h"],
  ["CC(C)Oc1ccc(-c2cnc(CNc3cc(-n4ccnc4)nc(C(F)(F)F)c3)nc2)cc1Cl", "1.02 to 1.67 h"]
]}

Query: For the compound `CC(C)Oc1ccc(-c2ncc(CNc3cc(-c4cc[nH]n4)nc(C(F)(F)F)c3)cn2)cc1` , give its measured half-life at 1 µM value.
Reply: > 1.67 h

Query: For the compound `CC(C)Oc1ccc(-c2ccc(CNc3cc(-n4cncn4)nc(C(F)(F)F)c3)nc2)cc1` , give its measured half-life at 1 µM value.
Reply: > 1.67 h

Query: For the compound `Fc1cc(-c2ncc(CNc3cc(-c4cn[nH]c4)nc(C(F)(F)F)c3)cn2)ccc1Cl` , give its measured half-life at 1 µM value.
Reply: > 1.67 h
